Biological target: sigma σ1 receptor
Construct: gene SIGMAR1; PDSP has often used guinea pig or rat tissue for sigma1
Test: PDSP radioligand competition binding
Settings: read-out: [drawing 2]
pKi: −log10 of the molar value.
ENDPOINT NAME: pKi

| STRUCTURE STRING | VALUE MEASURED |
| --- | --- |
| c1cc2c(nc1NC1=NCCN1)CCCC2 | 6.75 |

----------
Target: sigma σ2 receptor
Construct: PDSP has often used rat PC12 cells or guinea pig tissue for sigma2
Test: PDSP radioligand competition binding
Details: read-out: [drawing 1]
pKi: −log10 of the molar value.
ENDPOINT NAME: pKi

| MOLECULE | VALUE MEASURED |
| --- | --- |
| N=C(N)Nc1ccc2c(n1)CCCC2 [compound 1] | 6.26 |
